Taken from patent US20260306640A1.

- tested-target: KAT2A (Homo sapiens, UniProt Q92830)
- Sequence (Q92830 whole entry): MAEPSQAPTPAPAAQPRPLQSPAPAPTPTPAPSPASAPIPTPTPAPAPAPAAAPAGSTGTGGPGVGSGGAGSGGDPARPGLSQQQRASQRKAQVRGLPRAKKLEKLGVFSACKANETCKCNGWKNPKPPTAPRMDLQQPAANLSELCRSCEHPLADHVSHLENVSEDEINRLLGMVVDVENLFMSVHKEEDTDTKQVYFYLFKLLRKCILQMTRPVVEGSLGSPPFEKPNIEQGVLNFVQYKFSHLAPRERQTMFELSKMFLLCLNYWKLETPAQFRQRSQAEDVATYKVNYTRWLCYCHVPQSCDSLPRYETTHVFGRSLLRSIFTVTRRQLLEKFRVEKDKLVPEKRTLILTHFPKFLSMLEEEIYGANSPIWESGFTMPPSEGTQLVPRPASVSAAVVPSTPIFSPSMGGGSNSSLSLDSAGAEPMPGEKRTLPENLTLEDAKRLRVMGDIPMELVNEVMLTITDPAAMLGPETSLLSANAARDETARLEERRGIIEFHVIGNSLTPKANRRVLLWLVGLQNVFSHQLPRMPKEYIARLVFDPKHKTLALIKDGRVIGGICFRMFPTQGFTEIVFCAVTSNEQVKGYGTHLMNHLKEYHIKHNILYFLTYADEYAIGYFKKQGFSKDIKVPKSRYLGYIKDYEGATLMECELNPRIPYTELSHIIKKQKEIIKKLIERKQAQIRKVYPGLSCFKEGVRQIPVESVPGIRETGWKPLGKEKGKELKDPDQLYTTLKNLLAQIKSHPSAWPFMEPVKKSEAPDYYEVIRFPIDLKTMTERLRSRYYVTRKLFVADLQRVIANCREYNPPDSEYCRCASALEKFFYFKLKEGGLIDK
- method-description: KAT2A degradation, Western Blot (Jess), MOLM-13 cells
- Format: cell-based
- Design: degrader, Western blot
- condition-label: MOLM-13 cells, KAT2A, 24 h, Western Blot, vs DMSO; read-out: KAT2A MOLM-13 DC50
outcome-measure: DC50

Known DC50 results, listed for orientation:
- compound: "CN1C[C@H](Nc2cnn(C)c(=O)c2Br)C[C@H](c2ccc(CN3CC(Oc4ccc5c(c4)C(=O)N(C4CCC(=O)NC4=O)C5=O)C3)cc2)C1 (stereo partly drawn) [Compound 95]"
  DC50: "< 1 nM"
- compound: "CN1C[C@H](Nc2cnn(C)c(=O)c2Cl)C[C@H](c2ccc(C(=O)N3CCN(c4ccc5c(c4)C(=O)N(C4CCC(=O)NC4=O)C5=O)CC3)cc2)C1 (stereo partly drawn) [Compound 176]"
  DC50: "< 1 nM"
- compound: "CN1C[C@H](Nc2cnn(C)c(=O)c2Br)C[C@H](c2ccc(C(=O)N3CCC(c4ccc(NC5CCC(=O)NC5=O)cc4)CC3)cc2)C1 (stereo partly drawn) [Compound 115]"
  DC50: "< 1 nM"

Req: Record request: DC50 value, item CN1C[C@H](Nc2cnn(C)c(=O)c2Br)C[C@H](c2ccc(C(=O)N3CCC(c4cccc(CN5CCC(=O)NC5=O)c4)CC3)cc2)C1 [Compound 140]
Resp: > 30 nM

Req: Record request: DC50 value, item Cc1c(N[C@@H]2C[C@H](c3ccc(CN4CCC(Oc5ccc(C6CCC(=O)NC6=O)cc5)CC4)cc3)CN(C)C2)cnn(C)c1=O (stereo partly drawn) [Compound 188]
Resp: < 1 nM

Req: Record request: DC50 value, item CN1C[C@H](Nc2cnn(C)c(=O)c2Br)C[C@H](c2ccc(C(=O)N3CCN(c4cccc5c4C(=O)N(C4CCC(=O)NC4=O)C5=O)CC3)cc2)C1 (stereo partly drawn) [Compound 14]
Resp: < 1 nM
